Molecular target: Mothers against decapentaplegic homolog 3 (Homo sapiens) (UniProt P84022)
Sequence (P84022 whole entry, looked up): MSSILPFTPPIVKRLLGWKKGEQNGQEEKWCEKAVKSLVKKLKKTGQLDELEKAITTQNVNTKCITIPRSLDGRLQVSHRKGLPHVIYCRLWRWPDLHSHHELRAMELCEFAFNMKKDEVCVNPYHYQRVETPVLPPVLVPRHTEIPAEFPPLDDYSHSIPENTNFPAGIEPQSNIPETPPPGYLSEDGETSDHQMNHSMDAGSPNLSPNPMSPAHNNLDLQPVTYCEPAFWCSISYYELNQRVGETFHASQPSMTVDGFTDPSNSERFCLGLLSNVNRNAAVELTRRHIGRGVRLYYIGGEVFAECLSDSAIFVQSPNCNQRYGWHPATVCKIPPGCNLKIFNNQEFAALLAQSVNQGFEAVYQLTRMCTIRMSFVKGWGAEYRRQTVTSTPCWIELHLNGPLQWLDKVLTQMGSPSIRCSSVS
Test: blockers of Smad3 binding to FoxH1 – biochemical, TR-FRET, primary screen (AID 630);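 further: 0% = Smad3 plus labelled peptide maximal FRET and 100% = peptide-only background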
Settings: TR-FRET Smad3/Dy647-FoxH1 peptide binding, europium anti-His; at 25 µM; hits give high values
The campaign covered roughly 88,000 compounds. About 260 (0.3%) were called active. The sample as a whole holds a higher share of actives than the screen did.
Reported inhibition is given for each of the following molecules.
Form entry: value (%) — number only.

[[record]]
molecule = "COc1ccc(S(=O)(=O)N/N=C\\c2ccc(OC)c(COc3ccc(C)cc3[N+](=O)[O-])c2)cc1"
measurement_target = "Mothers against decapentaplegic homolog 3 (Homo sapiens) (UniProt P84022)"
endpoint_label = "inhibition"
recorded_number = -3.11

[[record]]
molecule = "COC(=O)c1ccccc1Sc1c(/C=N/OCc2ccc(Cl)cc2)c(C(F)(F)F)nn1C"
measurement_target = "Mothers against decapentaplegic homolog 3 (Homo sapiens) (UniProt P84022)"
endpoint_label = "inhibition"
recorded_number = 1.08

[[record]]
molecule = "CCC1CCCCN1CCCNC(=O)C1CCC(Cn2c(=O)[nH]c3ccccc3c2=O)CC1 (stereo not given)"
measurement_target = "Mothers against decapentaplegic homolog 3 (Homo sapiens) (UniProt P84022)"
endpoint_label = "inhibition"
recorded_number = 14.2

[[record]]
molecule = "CCOC(=O)C1=C(C)NC(SC)=NC1c1ccccc1 (stereo not given)"
measurement_target = "Mothers against decapentaplegic homolog 3 (Homo sapiens) (UniProt P84022)"
endpoint_label = "inhibition"
recorded_number = -3.1

[[record]]
molecule = "CCOCCOCCC(C(=O)O)P(=O)(c1ccccc1)c1ccccc1 (stereo not given)"
measurement_target = "Mothers against decapentaplegic homolog 3 (Homo sapiens) (UniProt P84022)"
endpoint_label = "inhibition"
recorded_number = 71.7


IN: Identify measured inhibition corresponding to COc1ccc(N/N=C2/CCCCC2=O)cc1
OUT: -1.11

IN: Determine its reported inhibition: COC(=O)C1=C(C)Nc2ncnn2C1c1cccnc1 (stereo not given)
OUT: -10.7

IN: Output inhibition of CCOCCCNC(=O)C(NC(=O)CNC(=O)c1ccccc1)c1ccc(C)cc1 (stereo not given)
OUT: -6.68

IN: Please report the measured inhibition for Cc1ccc(S(=O)(=O)N(C)C2(C)CCS(=O)(=O)C2)cc1 (stereo not given)
OUT: -7.37

IN: Could you please provide reported inhibition for C[C@@]12CC[C@H]3c4ccc(O)cc4CC[C@@H]3[C@H]1CC[C@H]2OC(=O)CCC1CCCC1 ? Thanks!
OUT: 39.6

====

Target: Mothers against decapentaplegic homolog 3 (Homo sapiens) (UniProt P84022)
Experiment: blockers of Smad3 binding to FoxH1 – biochemical, TR-FRET, primary screen (AID 630);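 further: 0% = Smad3 plus labelled peptide maximal FRET and 100% = peptide-only background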
Conditions: TR-FRET Smad3/Dy647-FoxH1 peptide binding, europium anti-His; at 25 µM
About 260 (0.3%) of roughly 88,000 compounds were called active.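 The calls were made as follows: active = compounds that reduce the energy-transfer binding signal between the protein and its labelled peptide by more than half; inactive = the rest.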 For the sample, actives were picked, then their nearest neighbours and some compounds at random.
Outcomes you can answer with include only these: TRUE (active), FALSE (inactive)

See these solved cases before continuing.
[[record]]
molecule = "O=C(O)c1ccc(C(=O)c2ccccc2C(=O)O)cc1C(=O)O"
group_label = "TRUE"

[[record]]
molecule = "Cc1cccc(-n2c(N)cc(=O)nc2SC(C)C(=O)NC2CCCCC2)c1 (stereo unspecified)"
group_label = "FALSE"

[[record]]
molecule = "CCc1ccccc1NC(=O)CN(C)S(=O)(=O)c1ccc2c(c1)c(=O)n(C)c(=O)n2C"
group_label = "FALSE"

[[record]]
molecule = "CCOc1ccc(NC(=O)N(CC(C)C)CC(C)C)cc1"
group_label = "FALSE"

[[record]]
molecule = "c1ccc2c(-c3nn4nnnc4c4ccccc34)cccc2c1"
group_label = "FALSE"


IN: Per the records of this test, what outcome belongs to CC1CCCCC1NC(=O)C1CCCN1S(=O)(=O)c1cccc2nsnc12 (stereo unspecified) ?
OUT: FALSE
